Reference source: patent US20240247080A1

- measuredTarget: T1, human GIP receptor (human, UniProt P48546 22-466)
- T1 sequence (looked up): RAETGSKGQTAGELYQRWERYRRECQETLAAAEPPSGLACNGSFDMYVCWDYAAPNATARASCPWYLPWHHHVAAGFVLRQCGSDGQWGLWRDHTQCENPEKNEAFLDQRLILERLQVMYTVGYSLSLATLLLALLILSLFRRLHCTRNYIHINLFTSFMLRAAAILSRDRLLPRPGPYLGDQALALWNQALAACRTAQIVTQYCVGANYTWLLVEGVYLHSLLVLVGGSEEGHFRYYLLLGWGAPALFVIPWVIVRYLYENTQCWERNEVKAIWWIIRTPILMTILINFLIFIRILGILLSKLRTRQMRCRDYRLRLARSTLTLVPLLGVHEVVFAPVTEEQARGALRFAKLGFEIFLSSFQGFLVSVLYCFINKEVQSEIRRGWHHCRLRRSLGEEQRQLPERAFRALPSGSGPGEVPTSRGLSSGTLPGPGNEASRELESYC
- testDetails: cell-based or functional assay
Starred links: 1 amine or outer side, 2 acyl side, 3 side chain; linkers in the order of their positions; H or OH if unused. Non-standard residues stand in square brackets, D forms with d. Groups on a side chain read outwards from the residue. No end group written: not given here. *: point of attachment. C18 diacid = O=C(O)CCCCCCCCCCCCCCCCC(=O)*; γGlu = O=C(O)[C@H](CCC(=O)[*:2])N[*:1]; Aib = CC(C)(N)C(=O)O
quantity: EC50 hGIPR 100% hP (CreLuc) (nM)
Answers are plain numbers, in nM.

Y[Aib]EGTFTSDYSI[Aib]LEKQAQ[Aib]AFVEWLIK([γGlu-γGlu-γGlu-γGlu-C18 diacid])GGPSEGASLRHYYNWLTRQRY-NH2 (also: TFA salt) [Compound 294]
0.89

Given the binder Y[Aib]EGTFTSDYSI[Aib]LEKQAQ[Aib]AFVEWLIK([Glu-Glu-Glu-Glu-C18 diacid])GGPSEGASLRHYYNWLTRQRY-NH2 (also: TFA salt) [Compound 291] , what is its reported EC50 hGIPR 100% hP (CreLuc)? 0.7
